- Test system: EKVX
- Test Summary: NCI tumour cell line growth inhibition, 48 h
The source made the active and inactive calls. No stated cut-off is given here; in the data, active = GI50 up to about 1.1 µM and inactive = higher.
Can you tell me GI50 for the items I'm about to list?

Kindly note the recorded GI50 for N=S(c1ccccc1)c1ccccc1[N+](=O)[O-] (stereo unspecified) , which is 19.8 µM (inactive)

Kindly note the recorded GI50 for COc1nc(=O)n(C2CC(F)C(CO)O2)cc1C (stereo unspecified) , which is > 100 µM (inactive)

Kindly note the recorded GI50 for Cn1c2cccc3nnc4cccc(c4c32)n1C , which is > 100 µM (inactive)

Kindly note the recorded GI50 for C(=N\c1cnc2ccccc2c1)/c1ccc2ccccc2n1 , which is > 100 µM (inactive)

Kindly note the recorded GI50 for CC(=O)n1nc(-c2nc3ccccc3nc2Cl)cc1Cl , which is 12.5 µM (inactive)

Kindly note the recorded GI50 for O=C1C2C3C4C1C1C2[C@H](OCc2ccccc2)C3C1[C@H]4OCc1ccccc1 (stereo partly specified) , which is 27.6 µM (inactive)

Kindly note the recorded GI50 for O=Cc1cc(O)c(O)c(/C=N/n2c3ccccc3c3ccccc32)c1 , which is 18.9 µM (inactive)

Kindly note the recorded GI50 for O=C(/C=C/c1cccc([N+](=O)[O-])c1)N1CCN(CCOC(c2ccccc2)c2ccccc2)CC1 , which is > 100 µM (inactive)

Kindly note the recorded GI50 for CC1(C)CC(=O)c2c(nc3c(ccc4ccccc43)c2-c2ccc(NC(=O)CCC(=O)Nc3ccc(-c4c5c(nc6c4ccc4ccccc46)CC(C)(C)CC5=O)cc3)cc2)C1 , which is 95.3 µM (inactive)

Kindly note the recorded GI50 for CC1OC(OC2C[C@](O)(C(=O)CBr)Cc3c(O)c4c(c(O)c32)C(=O)c2ccccc2C4=O)C(F)C(O)C1O (stereo partly specified) , which is 46.6 µM (inactive)

Kindly note the recorded GI50 for Cc1cc(Cl)nc(NC(=O)CSc2ccc(Cl)cc2)n1 , which is > 100 µM (inactive)

Kindly note the recorded GI50 for CC(C)(C)c1ccc(S(=O)(=O)N2C(c3cccc(C4CC[C@@H](C(=O)O)N4S(=O)(=O)c4ccc(C(C)(C)C)cc4)c3)CC[C@H]2C(=O)O)cc1 (stereo partly specified) , which is 30.1 µM (inactive)

Kindly note the recorded GI50 for COc1nc(NC2OC(COC(C)=O)C(OC(C)=O)C(OC(C)=O)C2OC(C)=O)c2c(OC(C)=O)cc(=O)oc2n1 (stereo unspecified) , which is > 100 µM (inactive)

Kindly note the recorded GI50 for NC(=O)NC(=O)c1cccc(NC(=O)CCl)c1 , which is 7.01 µM (inactive)

Kindly note the recorded GI50 for CCCC(=O)OCC1OC2OC(C)(C)OC2C2OC(C)(C)OC12 (stereo unspecified) , which is > 100 µM (inactive)

Kindly note the recorded GI50 for O=C(CCN1CCOCC1)C(=Cc1ccccc1)C(=O)CCN1CCOCC1 , which is 2.21 µM (inactive)

Kindly note the recorded GI50 for CN(C)CCNC(=O)c1cccc2c(NC(CS)C(=O)O)c3ccccc3nc12 (stereo unspecified) , which is 11.3 µM (inactive)

Kindly note the recorded GI50 for C=C(CCOC)CCC1CCCCC(=C)[C@H]1OC(C)=O (stereo partly specified) , which is > 100 µM (inactive)

Kindly note the recorded GI50 for NC(=O)c1ncn(CCN2CCN(C(=O)NCCCCCCNC(=O)N3CCN(CCn4cnc(C(N)=O)c4N)CC3)CC2)c1N , which is > 100 µM (inactive)

Kindly note the recorded GI50 for CCCC1C(=O)C(CC)Cc2c(OC)ccc(OC)c21 (stereo unspecified) , which is > 100 µM (inactive)

Kindly note the recorded GI50 for CCOC(=O)c1c(NS(=O)(=O)c2ccc(C)cc2)sc2c1CCCC2 , which is 32.6 µM (inactive)

Numbers sourced from ChEMBL document CHEMBL1201862.
